- Test target: rat kyn-3-OHase (Rattus norvegicus, UniProt O88867)
- Sequence (O88867 whole entry): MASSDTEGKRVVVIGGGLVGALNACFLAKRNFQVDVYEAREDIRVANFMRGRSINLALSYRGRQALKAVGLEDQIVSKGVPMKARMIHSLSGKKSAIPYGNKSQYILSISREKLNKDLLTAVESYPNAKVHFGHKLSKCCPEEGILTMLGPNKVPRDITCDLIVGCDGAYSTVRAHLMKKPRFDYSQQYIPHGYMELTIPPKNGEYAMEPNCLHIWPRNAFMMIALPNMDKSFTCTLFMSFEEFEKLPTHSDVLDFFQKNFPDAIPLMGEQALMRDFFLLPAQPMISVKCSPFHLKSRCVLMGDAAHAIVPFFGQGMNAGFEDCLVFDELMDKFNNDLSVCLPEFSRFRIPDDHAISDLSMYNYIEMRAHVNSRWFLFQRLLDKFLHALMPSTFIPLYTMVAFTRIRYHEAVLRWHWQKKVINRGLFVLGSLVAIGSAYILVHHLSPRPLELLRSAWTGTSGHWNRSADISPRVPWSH
Value type: IC50 (nM)
Quick reminder: number only, in nM, skip the unit.

Endpoint output: IC50 of NC(CC(=O)c1ccc(Cl)c(Cl)c1)C(=O)O (racemic) [FCE 28833A, (R,S)-3,4-dichlorobenzoylalanine] . Value? 290
